Numbers sourced from paper PMC12389196.

System: Neuro-2a (mouse neuroblastoma) cells
Assay: MTT assay on Neuro-2a reference cells
Format: cell-based
Conditions: N2a, 72 h
endpoint.name: IC50 (µM)

// known answers, use as guide
Cc1cc(C)c(S(=O)(=O)N/N=C/c2c[nH]c3ccc(Cl)cc23)c(C)c1 ... 24
Cc1ccc(S(=O)(=O)N/N=C/c2c[nH]c3ccc(Cl)cc23)c(C)c1 ... 15.9

(1) Cc1cc(C)c(S(=O)(=O)N/N=C/c2c[nH]c3ccc(Br)cc23)c(C)c1
(2) Cc1ccc(S(=O)(=O)N/N=C/c2c[nH]c3ccc(Br)cc23)cc1
(3) Clc1ccc2[nH]cc(/C=N/N=C/c3c[nH]c4ccc(Cl)cc34)c2c1
Query: Exam item: list the entries in increasing order of IC50. A complete answer lists every label in the requested sequence.
Response: 1, 2, 3

* * *

System: MDA-MB-231 (triple-negative breast cancer) cells
Assay: MTT assay, antiproliferative activity on MDA-MB-231 cells
Assay type: cell-based, human
Conditions: MTT, 72 h
endpoint.name: pIC50
Recall that pIC50 is obtained by taking minus log10 of the concentration measured in molar.

Cc1ccc(S(=O)(=O)N/N=C/c2c[nH]c3ccc(Cl)cc23)c(C)c1 ... 5.02

Query: Look up pIC50: N.N.[Cl][Pt][Cl] [Cisplatin, reference compound]
Response: 4.20

* * *

Test system: Neuro-2a (mouse neuroblastoma) cells
Assay: MTT assay on Neuro-2a reference cells
Type: cell-based
Conditions: N2a, 72 h
Description: The antiproliferative activity of the novel indolyl-methylidene-substituted phenylsulfonylhydrazones (3a–j) and the bis-indole hydrazine derivative (4) was evaluated against two breast cancer cell lines: MCF-7 and MDA-MB-231. […] The cytostatic activity of the tested compounds was evaluated using the Mosmann MTT assay—a well-established colorimetric method for assessing cell viability. […] Cell viability was quantified as a percentage (%) relative to the untreated control, which was set at 100% viability. […]
pIC50: −log10 of the molar value.
endpoint.name: pIC50

Known results for compounds:
CC(=O)n1cc(/C=N/NS(=O)(=O)c2c(C)cc(C)cc2C)c2ccccc21 ... 4.08
Cc1ccc(S(=O)(=O)N/N=C/c2c[nH]c3ccc(Cl)cc23)cc1C ... 4.45
O=S(=O)(N/N=C/c1c[nH]c2ccc(Br)cc12)c1ccccc1 ... 4.96
COc1ccc(S(=O)(=O)N/N=C/c2c[nH]c3ccc(Br)cc23)cc1 ... 4.73

(1) COc1ccc(S(=O)(=O)N/N=C/c2c[nH]c3ccc(Cl)cc23)cc1
(2) COc1ccc(S(=O)(=O)N/N=C/c2cn(C(C)=O)c3ccccc23)cc1
Query: // select label with min value of measured pIC50 from [ 1 , 2 ] Mark your answer with the label of the selected entry.
Response: 2
(2: 4.24, 1: 4.58)

* * *

Reported SI MDA-MB-231 (selectivity index) values follow for various compounds
Test system: MDA-MB-231 (triple-negative breast cancer) cells
Test: MTT assay, antiproliferative activity on MDA-MB-231 cells
Assay type: cell-based, human
Conditions: SI = IC50 on Neuro-2a/IC50 on MDA-MB-231
Please reply with the value in numeric form only.

Answered examples (5):
Cc1ccc(S(=O)(=O)N/N=C/c2c[nH]c3ccc(Cl)cc23)c(C)c1 [3i] ... 1.674
COc1ccc(S(=O)(=O)N/N=C/c2c[nH]c3ccc(Br)cc23)cc1 [3c] ... 1.051
COc1ccc(S(=O)(=O)N/N=C/c2c[nH]c3ccc(Cl)cc23)cc1 [3g] ... 1.782
Cc1cc(C)c(S(=O)(=O)N/N=C/c2c[nH]c3ccc(Br)cc23)c(C)c1 [3d] ... 1.055
Cc1cc(C)c(S(=O)(=O)N/N=C/c2c[nH]c3ccc(Cl)cc23)c(C)c1 [3h] ... 1.326

Query: Recorded SI MDA-MB-231 (selectivity index) of Cc1ccc(S(=O)(=O)N/N=C/c2c[nH]c3ccc(Cl)cc23)cc1C [3j] , please.
Response: 2.669

Query: Param item = Cc1ccc(S(=O)(=O)N/N=C/c2c[nH]c3ccc(Br)cc23)cc1 [3e] ; retrieve measured SI MDA-MB-231 (selectivity index).
Response: 1.861

Query: // lookup SI MDA-MB-231 (selectivity index) for CC(=O)n1cc(/C=N/NS(=O)(=O)c2c(C)cc(C)cc2C)c2ccccc21 [3b]
Response: 5.147

Query: Give the measured SI MDA-MB-231 (selectivity index) of COc1ccc(S(=O)(=O)N/N=C/c2cn(C(C)=O)c3ccccc23)cc1 [3a] .
Response: 2.886

Query: SI MDA-MB-231 (selectivity index) for O=S(=O)(N/N=C/c1c[nH]c2ccc(Br)cc12)c1ccccc1 [3f] ?
Response: 2.319

Query: For the compound Clc1ccc2[nH]cc(/C=N/N=C/c3c[nH]c4ccc(Cl)cc34)c2c1 [compound 4] , what SI MDA-MB-231 (selectivity index) is on record?
Response: 0.814
